- System: SNB-78
- Assay Info: NCI tumour cell line growth inhibition, 48 h
Activity calls are given as the source filed them. No stated cut-off is given here; in the data, active = GI50 up to about 1.1 µM and inactive = higher.
Returns: one label drawn from 1 (active), 0 (inactive)

Use the examples below as a reference point.
COc1ccc2c(c1)[n+]([O-])c(-c1ccc(OC)c(OC)c1)c(N)[n+]2[O-]: 0
COC(=O)C(=O)C(C(=O)C(=O)Nc1ccc(OC)cc1[N+](=O)[O-])c1nc2ccc([N+](=O)[O-])cc2nc1O (stereo not given): 0
COc1cccc(-c2cc(O)c3cc4c(cc3n2)OCO4)c1: 1
CCOC(=O)/C(C#N)=C\Sc1ccccc1: 0

Proceed to the following item.
Short answer needed: outcome of this test for Cc1cc2c(C=O)n[nH]c2c(C#N)c1C ?
0

====

Listed molecules paired with reported GI50
- Test system: OVCAR-4
- Assay Info: NCI tumour cell line growth inhibition, 48 h
Active and inactive are the calls of the source. Cut-off read from the data, not from the text of the source: active = GI50 up to about 1.1 µM and inactive = higher.

Completed entries (count: 4):
C=C1C(=O)O[C@@H]2O[C@@]3(C)CC[C@H]4[C@H](C)CC[C@@H]1[C@@]24O3: 15.8 µM (inactive)
Cc1cc(C)c2c(O)cc(-c3cccc(Cl)c3)nc2n1: 77.3 µM (inactive)
COC(=O)CCC(NC(=S)N/N=C(\C)c1ccco1)C(=O)OC (stereo not given): > 100 µM (inactive)
Nc1nc(Cl)cc(NCC2(CO)CCC(Cc3ccccc3)C2)n1 (stereo not given): 13.6 µM (inactive)

Moving on to another molecule below.
GI50 lookup needed for COc1ccc(N2C(=O)/C(=C\c3cccc(Oc4ccccc4)c3)S(=O)(=O)C2c2ccccc2)cc1 (stereo not given) , thanks.
28.6 µM (inactive)

====

- System: OVCAR-3
- Assay Info: NCI tumour cell line growth inhibition, 48 h
Calls of active or inactive are those of the source. Rule as the data show it: active = GI50 up to about 1.1 µM and inactive = higher.
Measure Name: GI50

Completed entries (count: 2):
COC1=C(N=[N+]=[N-])C(=O)c2ncccc2C1=O: 5.57 µM (inactive)
O=C(Sc1n[nH]c(=O)[nH]c1=O)c1cccc2nc3ccccc3nc12: 50 µM (inactive)

GI50 lookup needed for NC(CC(O)(c1ccccc1)c1ccccc1)c1ccccc1S (configuration not stated) , thanks.
16 µM (inactive)

GI50 lookup needed for COC1CC(n2cnc3c(N)ncnc32)OC1CO (configuration not stated) , thanks.
> 100 µM (inactive)

GI50 lookup needed for O=C1C(Nc2ccc(S(=O)(=O)Nc3cnc4ccccc4n3)cc2)=C/C(=N\c2ccc(S(=O)(=O)Nc3cnc4ccccc4n3)cc2)c2ccccc21 , thanks.
19.8 µM (inactive)

GI50 lookup needed for c1ccc2c(c1)c1c(n2CCOCCN2CCOCC2)CCCC1 , thanks.
26.9 µM (inactive)

GI50 lookup needed for Nc1ncnc2ccc(Sc3ccc4ncnc(N)c4c3)cc12 , thanks.
> 100 µM (inactive)

GI50 lookup needed for O=C(O)c1ccc(O)c(/N=N/c2cc(S(=O)(=O)O)c3ccccc3c2O)c1 , thanks.
92.3 µM (inactive)

GI50 lookup needed for CCN(CC)CCn1c2cc3c(cc2c(=O)c2cccnc21)OCO3 , thanks.
5.14 µM (inactive)

GI50 lookup needed for O=C(O)/C=C/c1ccc(O)c(O)c1 [CAFFEIC ACID] , thanks.
> 100 µM (inactive)

GI50 lookup needed for O=C1OC(O)C(Oc2ccc(Cl)cc2)=C1Cl (configuration not stated) , thanks.
> 100 µM (inactive)

GI50 lookup needed for COc1cc(/C=C2\CN(C)CC3=C2N=C(S)NC3c2cc(OC)c(OC)c(OC)c2)cc(OC)c1OC (configuration not stated) , thanks.
> 100 µM (inactive)

GI50 lookup needed for Cc1cc2c(cc1C)NC1=C(O)C(c3c[nH]c4ccc(COc5ccccc5)cc34)OC1=N2 (configuration not stated) , thanks.
> 100 µM (inactive)

GI50 lookup needed for COc1ccc2c(O)c3[n+](cc2c1OC)CCc1cc2c(cc1-3)OCO2 , thanks.
> 100 µM (inactive)

GI50 lookup needed for NC(=O)CN1CC(C2=C(O)CN(CC(N)=O)C2=O)=CC1=O , thanks.
> 100 µM (inactive)

GI50 lookup needed for CC(=O)OCC1(C)C(O)CCC2(C)C1CCC1CC3CC12CCC3(O)CO (configuration not stated) , thanks.
> 100 µM (inactive)

GI50 lookup needed for C[C@]12CC[C@@H]3c4ccc(O)cc4CC[C@H]3[C@@H]1CC[C@@H]2OC(=O)CCc1ccccc1 , thanks.
20.5 µM (inactive)

GI50 lookup needed for CCCCC(=O)Oc1ccc2c(C)cc(=O)oc2c1 , thanks.
> 100 µM (inactive)

GI50 lookup needed for CCOC(=O)c1cn2c([nH]c3ccccc32)c(C#N)c1=O , thanks.
> 100 µM (inactive)

GI50 lookup needed for COc1ccc(/N=C\c2ccc(N(CCC#N)S(=O)(=O)c3ccccc3)cc2C)cc1 , thanks.
53.7 µM (inactive)

GI50 lookup needed for C[Si](C)(C)/C=C\CCCN1C(=O)CCC1=O , thanks.
> 100 µM (inactive)

GI50 lookup needed for C=C1C(=O)O[C@@H]2O[C@@]3(C)CC[C@H]4[C@H](C)CC[C@@H]1[C@@]24O3 [DEOXYARTEMISITENE] , thanks.
22.2 µM (inactive)

====

- Tested on: SNB-75
- Assay Info: NCI tumour cell line growth inhibition, 48 h
The source made the active and inactive calls. Cut-off read from the data, not from the text of the source: active = GI50 up to about 1.1 µM and inactive = higher.
Measure Name: GI50

COC(=O)C1=C(O)CCCC(C2CCCCC(=O)C2C(=O)OC)=C1 (centres undefined): 28.7 µM (inactive)

GI50 lookup needed for O=C1c2ccc(O)c(O)c2C(=O)c2c(O)ccc(O)c21 [QUINALIZARIN] , thanks.
> 10 µM (inactive)

GI50 lookup needed for COc1ccc2cc(CNCCCN3CCN(CCCNCc4ccc5cc(OC)ccc5c4)CC3)ccc2c1 , thanks.
1.62 µM (inactive)

====

- Tested on: UACC-257
- Assay Info: NCI tumour cell line growth inhibition, 48 h
Activity calls are given as the source filed them. Cut-off read from the data, not from the text of the source: active = GI50 up to about 1.1 µM and inactive = higher.
Measure Name: GI50

O=c1oc2ccc([N+](=O)[O-])cc2c(Nc2ccc3c(c2)Oc2ccccc2O3)c1[N+](=O)[O-]: 26.2 µM (inactive)
CCC1c2[nH]c3ccccc3c2C[C@H]2C(=O)NC(Cc3ccccc3)C(=O)N12 (some centres undefined): 18 µM (inactive)
c1ccc(Cc2cccc3cc(-c4ccc(-c5ccccc5)cc4)[nH]c23)cc1: > 100 µM (inactive)

GI50 lookup needed for CCCSS[C@H]1NC(=O)[C@H]1NC(=O)COc1ccccc1 , thanks.
14.4 µM (inactive)

GI50 lookup needed for CCN1CC2(COC)C(O)CC(OC)C34C5CC6(O)C(OC)C=C(C5C6OC(=O)c5ccc(OC)c(OC)c5)C(C(OC)C23)C14 (centres undefined) , thanks.
> 7.5 µM (inactive)

GI50 lookup needed for COc1ccc2cc(CNCCCN3CCN(CCCNCc4ccc5cc(OC)ccc5c4)CC3)ccc2c1 , thanks.
2.22 µM (inactive)

GI50 lookup needed for CC(=O)NS(=O)(=O)c1ccc(NC(=O)COC(=O)c2cccc3c(=O)c4ccccc4[nH]c23)cc1 , thanks.
> 100 µM (inactive)

GI50 lookup needed for O=C(CC1(O)C(=O)Nc2ccc(Br)cc21)c1ccc(Cl)cc1Cl (centres undefined) , thanks.
30.9 µM (inactive)

====

- Test system: NCI/ADR-RES
- Assay Info: NCI tumour cell line growth inhibition, 48 h
Active and inactive are the calls of the source. Rule as the data show it: active = GI50 up to about 1.1 µM and inactive = higher.
Returns: one label drawn from active, inactive

Use the examples below as a reference point.
C/C(=N\NC(=S)NCCCCNC(=S)N/N=C(\C)c1ccccn1)c1ccccc1: active
Cc1cc(S(=O)(=O)Nc2n[nH]c(-c3ccc(Cl)cc3)n2)c(SSc2cc(Cl)c(C)cc2S(=O)(=O)Nc2n[nH]c(-c3ccc(Cl)cc3)n2)cc1Cl: inactive
N=C(N)NCCCC(NCc1c2ccccc2nc2ccccc12)C(=O)O (stereo unspecified): inactive

Short answer needed: outcome of this test for COC1(OC)CC(CO)(CNc2nc(N)nc(Cl)c2/C=N\O)C1 ?
inactive

Short answer needed: outcome of this test for O=C(O)CCc1nc(-c2ccccc2)c(-c2ccccc2)o1 ?
inactive

Short answer needed: outcome of this test for OC(COc1cccc2ccccc12)CN1CCOCC1 (stereo unspecified) ?
inactive

Short answer needed: outcome of this test for CC(C)(C)OC(=O)NC(Cc1ccccc1)C(=O)OCN1C(=O)C2C3C=CC(C2C1=O)C1C2C(=O)N(COC(=O)C(Cc4ccccc4)NC(=O)OC(C)(C)C)C(=O)C2C31 (stereo unspecified) ?
inactive

====

- System: OVCAR-8
- Assay Info: NCI tumour cell line growth inhibition, 48 h
Active and inactive are the calls of the source. Cut-off read from the data, not from the text of the source: active = GI50 up to about 1.1 µM and inactive = higher.
Listed compounds paired with reported GI50

CCOP(=O)(/C=C/n1cnc2c(=O)n(C(C)=O)c(N)nc21)OCC: > 100 µM (inactive)
O=C(CC(=O)c1cccc([N+](=O)[O-])c1)C(=O)Nc1ccccc1: > 100 µM (inactive)
Nc1ncnc2c1ncn2C1C=CC(COS(N)(=O)=O)C1 (stereo unspecified): 13.1 µM (inactive)
COc1ccc2c(O)c(S(=O)(=O)c3ccc(C)cc3)c(=O)oc2c1OC: > 100 µM (inactive)
CC(=O)NS(=O)(=O)c1ccc(NC(=O)COC(=O)c2cccc3c(=O)c4ccccc4[nH]c23)cc1: > 100 µM (inactive)
Cc1ccc(S(=O)(=O)NCCSS(=O)(=O)c2ccc(C)cc2)cc1: 37.9 µM (inactive)
O=C1c2cccc(O)c2C(=O)c2c(O)cccc21: > 100 µM (inactive)
N=C1N(S(=O)(=O)c2ccccc2)[C@@H](Cc2ccccc2)[C@H](c2ccccc2)C1(c1ccccc1)c1ccccc1: 41 µM (inactive)
N/C(S)=N/N=C/c1cc(CN2CCOCC2)c(N)cn1: 18.5 µM (inactive)
COc1cc(-c2cc(=O)c3c(OC)c(OC)c(OC)c(OC)c3o2)c(OC)c(OC)c1OC: 28.6 µM (inactive)

GI50 lookup needed for O=C(CC(C(=O)c1ccoc1)c1ccco1)c1ccco1 (stereo unspecified) , thanks.
> 100 µM (inactive)

GI50 lookup needed for COc1ccc(S(=O)(=O)c2nnc(S(=O)(=O)Cc3ccccc3)s2)cc1 , thanks.
21.9 µM (inactive)

GI50 lookup needed for N#CC(C(=N/O)/C(=N\O)C(C#N)c1ccccc1)c1ccccc1 (stereo unspecified) , thanks.
> 100 µM (inactive)

GI50 lookup needed for C/C(CC(=O)Nc1ccc(C)c(C)c1)=N\NC(N)=S , thanks.
> 100 µM (inactive)

GI50 lookup needed for O=S(=O)(O)Oc1cc2c(c(OS(=O)(=O)O)c1)C[C@H](OS(=O)(=O)O)[C@@H](c1ccc(OS(=O)(=O)O)c(OS(=O)(=O)O)c1)O2 , thanks.
> 100 µM (inactive)

Attribution: ChEMBL document CHEMBL1201862
